Molecular target: C-X-C chemokine receptor type 2 (Homo sapiens, UniProt P25025)
Sequence (P25025 whole entry): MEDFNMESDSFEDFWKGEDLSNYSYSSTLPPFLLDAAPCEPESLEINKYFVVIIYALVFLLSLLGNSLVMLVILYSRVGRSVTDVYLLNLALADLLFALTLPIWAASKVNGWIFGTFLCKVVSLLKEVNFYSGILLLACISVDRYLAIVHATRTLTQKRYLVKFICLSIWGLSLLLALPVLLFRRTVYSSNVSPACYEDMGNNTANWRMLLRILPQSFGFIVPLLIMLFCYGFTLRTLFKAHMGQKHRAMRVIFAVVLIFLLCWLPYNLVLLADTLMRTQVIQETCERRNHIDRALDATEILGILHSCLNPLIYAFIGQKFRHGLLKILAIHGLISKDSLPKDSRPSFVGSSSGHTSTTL
PROPERTY_MEASURED: Ki (nM)
Kindly answer with a numeric value in nM, unit omitted.

[ask] // fetch C-X-C chemokine receptor type 2 (Homo sapiens, UniProt P25025) Ki for "C[C@H](F)[C@@H](Nc1c(Nc2cccc(C(=O)N(C)C)c2O)c(=O)c1=O)c1ccco1"
[reply] 7

[ask] // fetch C-X-C chemokine receptor type 2 (Homo sapiens, UniProt P25025) Ki for "CN(C)C(=O)c1cccc(Nc2c(N[C@@H](c3cc(Cl)c(Cl)o3)C(F)(F)F)c(=O)c2=O)c1O"
[reply] 5

[ask] // fetch C-X-C chemokine receptor type 2 (Homo sapiens, UniProt P25025) Ki for "CN(C)C(=O)c1cccc(Nc2c(N[C@@H](c3cc(Cl)co3)C(F)(F)F)c(=O)c2=O)c1O"
[reply] 5

[ask] // fetch C-X-C chemokine receptor type 2 (Homo sapiens, UniProt P25025) Ki for "CN(C)C(=O)c1cccc(Nc2c(N[C@@H](c3ccccc3)C(F)(F)F)c(=O)c2=O)c1O"
[reply] 14

* * *

PROPERTY_MEASURED: Ki (µM)
Kindly answer with a numeric value in µM, unit omitted.

[ask] // fetch C-X-C chemokine receptor type 1 (Homo sapiens) Ki for "Cc1coc([C@H](Nc2c(Nc3cccc(C(=O)N(C)C)c3O)c(=O)c2=O)C(C)(F)F)c1"
[reply] 0.006

[ask] // fetch C-X-C chemokine receptor type 1 (Homo sapiens) Ki for "CC(C)c1coc([C@H](Nc2c(Nc3cccc(C(=O)N(C)C)c3O)c(=O)c2=O)C(C)(F)F)c1"
[reply] 0.025

[ask] // fetch C-X-C chemokine receptor type 1 (Homo sapiens) Ki for "CCC(F)(F)[C@@H](Nc1c(Nc2cccc(C(=O)N(C)C)c2O)c(=O)c1=O)c1ccc(C)o1"
[reply] 0.022

Where do these numbers come from? They come from ChEMBL document CHEMBL1153270.
